The entries below come with measured protein stability index values attached.
Assay: protein stability index of a GFP-peptide fusion (GPS, HEK-293T) (PSI 1-6); higher = more stable;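 further: 24-mer peptide tiles fused after GFP, lentivirally expressed, FACS-sorted into six equal bins by GFP/DsRed ratio, decoded by Illumina sequencing, PSI is the read-weighted mean bin number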
Details: treatment: MLN4924 1 uM, 8 h; c terminus: a fixed tail appended
measured_parameter: protein stability index

sequence_text="LVAEILPAPGKLLGPCVVGYGIYY [SAT2]" measured_parameter="protein stability index" value_observed=2.53
sequence_text="HSEILKYFQSVTSNRWLMVKIFLI [STX5]" measured_parameter="protein stability index" value_observed=2.4
sequence_text="EDPEENPYGPPPDAVQTSLMDEGA [RBBP5]" measured_parameter="protein stability index" value_observed=5.46
sequence_text="AYMGHLDVVALLINHGAEVTCKDK [ANKRD44]" measured_parameter="protein stability index" value_observed=2.44
sequence_text="TLSGTCLLIANKRQSYDISIVAQV [CARM1]" measured_parameter="protein stability index" value_observed=2.68
sequence_text="CFPSTQKPTEPSVPVQPLLPESLA [FBF1]" measured_parameter="protein stability index" value_observed=4.16
sequence_text="SEFRALQFSLMLCAFVGALGGAAF [SPNS1]" measured_parameter="protein stability index" value_observed=3.04

* * *

Test: protein stability index of a GFP-peptide fusion (GPS, HEK-293T) (PSI 1-6); higher = more stable
Settings: treatment: DMSO; c terminus: a fixed tail appended
measured_parameter: protein stability index

sequence_text="MGQVLPVFAHCKEAPSTASSTPDS [RTN2]" value_observed=4.67
sequence_text="EDSAQNCFALIPKAPKKDVIKMLV [EFHC1]" value_observed=2.69
sequence_text="LLEERRPADSAQLLSLNSLLPESG [TFE3]" value_observed=4.37
sequence_text="KGCKVTLPEKPVKLASHTRDTTGV [FBF1]" value_observed=4.21
sequence_text="PSLRPRPASSISLPIGHLGCISLL [DMRTC1]" value_observed=2.55
sequence_text="RGGSDPETTGIQIWSEVFTVEKPG [ATL3]" value_observed=4
sequence_text="KNFFKKAAAALFGGKKDKARYIDT [PLK2]" value_observed=1.95
sequence_text="DLGNACWVHKHFTEDIQTRQYRSI [SRPK2]" value_observed=2.61
sequence_text="ERSRDVVDEVSVSLRLWDTFGDHH [RHOBTB1]" value_observed=3.27
sequence_text="MCMVMRGVQKMNSKTVTSTMLGVF [GCH1]" value_observed=2.31
sequence_text="FTLGTNAIIISTIVLDRALHIPMY [OR10K2]" value_observed=2.89
sequence_text="NGSCENSDASSHANAAKHTQDSAR [EHMT1]" value_observed=5.27
sequence_text="TSTPEDKESGQEGVDSMAEEGTSD [SMARCE1]" value_observed=5.65

* * *

Assay: protein stability index of a GFP-peptide fusion (GPS, HEK-293T) (PSI 1-6); higher = more stable
Conditions: treatment: DMSO; c terminus: a fixed tail appended
measured_parameter: protein stability index

sequence_text="PLPQIPNLPFWVKEKANSLKNEIQ [SPATS1]" value_observed=2.79
sequence_text="GTAFDAETDSEMNSQESRSDLEDM [SMG5]" value_observed=5.63
sequence_text="EVESLTAARNACRAGTEPSDAIRV [TRIP13]" value_observed=4.33
sequence_text="EKFSDEGDSDSALDSVSPCPSSPK [DLC1]" value_observed=5.41
sequence_text="FNYLHTNCFEITLELSCDKFPPEE [CPN1]" value_observed=2.5
sequence_text="ITCSSTMSYSCCLPSLGCRTSCSS [KRT34]" value_observed=2.19
sequence_text="GVCMGLVAAACACGFTVAQIITSL [OR10K2]" value_observed=3.21
sequence_text="TRGWVQTLARMSRRTRGPVERAAA [C6orf223]" value_observed=3.23
sequence_text="PKDIAKLVPKTHLMSESEWRNLGV [CKS1B]" value_observed=2.8
sequence_text="MEYCLEVIKENDPSGFLQISDALI [TRIM9]" value_observed=2.47
sequence_text="HGVLSAEGFLFVFGGQDENKQTLS [GAN]" value_observed=2.43
sequence_text="YRHLLEGEDCKLPPQPCATACKPV [KRT36]" value_observed=3.97
sequence_text="LSIQLQPKETQPFPKSEQVYLHFL [ZNF232]" value_observed=2.4
sequence_text="FMEFYQDVKDWWLFGFYFCMPLVC [EDNRA]" value_observed=3.15
sequence_text="LKNKCCPPPCKFGEGKLSKRLKHK [C22orf31]" value_observed=3.49
sequence_text="SHRSNLIRHQRIHTGEKPYTCHEC [ZNF263]" value_observed=3.16
sequence_text="ITHSTYSLPASSYSQDPVYANGGL [NOL4L]" value_observed=2.96
sequence_text="PAAPTPESFTVHFLPLNSAQTLHH [DNAAF3]" value_observed=2.87
sequence_text="VCQRMLNQGFLKVERYHNLCQKQV [FBXO28]" value_observed=2.18
sequence_text="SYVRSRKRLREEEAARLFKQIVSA [TRIB1]" value_observed=2.53
sequence_text="CDQYSCALTGPVVDIVTGHARLSD [DHCR7]" value_observed=3.57
sequence_text="MDGRWQCSCWAWFLLVLAVVAGDT [ADAMTSL2]" value_observed=2.62
sequence_text="RSDADLVVFLSPLTTFQDQLNRRG [OAS1]" value_observed=2.27
sequence_text="SVWQHIDCMGIDRQHIPDTYLCER [KMT2E]" value_observed=2.83
sequence_text="TLNVIELNVQKTVDYTGQAKAQVR [STX11]" value_observed=2.93
sequence_text="LGLYINFRHLYKQRRRRYGQKKKK [HACD3]" value_observed=2.37
sequence_text="SKYVKLNVGGALYYTTMQTLTKQD [KCTD10]" value_observed=2.15

Cited source for all entries: the supplement of paper PMC10567573
